targetEntity: T1, human IL-25 (human, UniProt Q9H293 33-177)
T1 construct: also called IL-17E; rhIL-25
T1 sequence: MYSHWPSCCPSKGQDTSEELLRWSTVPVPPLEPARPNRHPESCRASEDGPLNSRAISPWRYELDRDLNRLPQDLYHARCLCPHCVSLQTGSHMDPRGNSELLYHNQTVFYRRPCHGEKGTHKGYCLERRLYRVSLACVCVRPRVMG
testSummary: Biacore, 7200 sec dissociation
propertyLabel: pKd
By convention, pKd is the negative base-10 log of a molar concentration.

Ask | Reported pKd for I25M30 (antibody, V domains shown, One of the 9 candidate IgG1 mAbs of the combinatorial library based on huDDG91) VH: EVQLVESGAEVKKPGASVKVSCKASGYSFSGYTMNWVRQAPGQRLEWMGLINPYNGGTSYNQNFKGRVTLTVDTSASTAYLELNSLRSEDTGVYYCAREDFDSWTYFAMDYWGQGTLVTVS VL: DIQMTQSPSSLSASVGDRVTITCSASQGIHWNLNWYQQKPGKVPKLLIYYTSSLHSGVPSRFSGSGSGTDFTLTISSLQPEDVATYYCQQFNSFPYTFGQGTKLEIK : what is it?
Reply | 10.36

Ask | Cool, now I25M10 (antibody, V domains shown, One of the 9 candidate IgG1 mAbs of the combinatorial library based on huDDG91) VH: EVQLVESGAEVKKPGASVKVSCKASGYSFSGYTMNWVRQAPGQRLEWMGLINPYNGGTSYNQNFKGRVTLTVDTSASTAYLELNSLRSEDTGVYYCAREDFDSWTFFAMDYWGQGTLVTVS VL: DIQMTQSPSSLSASVGDRVTITCSASQGISNYLNWYQQKPGKVPKLLIYYTSSLHSGVPSRFSGSGSGTDFTLTISSLQPEDVATYYCQQYLAFPYTFGQGTKLEIK
Reply | 10.44

Ask | # repeat for I25M31 (antibody, V domains shown, One of the 9 candidate IgG1 mAbs of the combinatorial library based on huDDG91) VH: EVQLVESGAEVKKPGASVKVSCKASGYSFSGYTMNWVRQAPGQRLEWMGLINPYNGGTSYNQNFKGRVTLTVDTSASTAYLELNSLRSEDTGVYYCAREDFDSWTYFAMDYWGQGTLVTVS VL: DIQMTQSPSSLSASVGDRVTITCSASQGISNYLNWYQQKPGKVPKLLIYYTSSLHSGVPSRFSGSGSGTDFTLTISSLQPEDVATYYCQQYSKLPYTFGQGTKLEIK
Reply | 10.40

Ask | Please answer likewise for I25M28 (antibody, V domains shown, One of the 9 candidate IgG1 mAbs of the combinatorial library based on huDDG91) VH: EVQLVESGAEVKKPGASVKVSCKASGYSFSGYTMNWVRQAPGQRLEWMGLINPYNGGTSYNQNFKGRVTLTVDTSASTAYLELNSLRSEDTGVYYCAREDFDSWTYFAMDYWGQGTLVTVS VL: DIQMTQSPSSLSASVGDRVTITCSASQGISNYLNWYQQKPGKVPKLLIYYTSSLHSGVPSRFSGSGSGTDFTLTISSLQPEDVATYYCQQYLAFPYTFGQGTKLEIK
Reply | 10.72

Ask | Entry to check: I25M11 (antibody, V domains shown, One of the 9 candidate IgG1 mAbs of the combinatorial library based on huDDG91) VH: EVQLVESGAEVKKPGASVKVSCKASGYSFSGYTMNWVRQAPGQRLEWMGLINPYNGGTSYNQNFKGRVTLTVDTSASTAYLELNSLRSEDTGVYYCAREDFDSWTFFAMDYWGQGTLVTVS VL: DIQMTQSPSSLSASVGDRVTITCSASQGIASFLNWYQQKPGKVPKLLIYYTSSLHSGVPSRFSGSGSGTDFTLTISSLQPEDVATYYCQQYSSFPYTFGQGTKLEIK
Reply | 10.24
